Hi there, I'd appreciate the recorded Kd for every entry that follows.
biological target: PRMT5-MEP50 (Homo sapiens); construct: The compounds were tested by means of FP with the full-length PRMT5-MEP50 complex; made in house; assay: Direct binding fluorescence polarization (FP) assay of FITC-labeled peptides; details: supplementary CSV, read-out: PRMT5-MEP50 Kd
Square brackets hold non-standard residues; d marks the D form. Peptide text beside a SMILES is read from it. * marks the point of attachment. FITC = O=C1OC2(c3ccc(O)cc3Oc3cc(O)ccc32)c2ccc(NC(=S)*)cc21; Phe(4-COOH) = N[C@@H](Cc1ccc(C(=O)O)cc1)C(=O)O

input: For the molecule shown here, CC(=O)N[C@H](C(=O)N1CCC[C@H]1C(=O)NCC(=O)N[C@@H](CCC(N)=O)C(=O)N[C@@H](Cc1ccc(C(=O)O)cc1)C(=O)N[C@@H](CC(=O)O)C(=O)N[C@@H](CC(=O)O)C(=O)N[C@@H](C)C(=O)N[C@@H](CC(=O)O)C(=O)N[C@@H](CCCCNC(=S)Nc1ccc2c(c1)C(=O)OC21c2ccc(O)cc2Oc2cc(O)ccc21)C(N)=O)C(C)C [Compound S19] (Ac-VPGQ[Phe(4-COOH)]DDADK(FITC)-NH2) , give the reported Kd.
output: > 1000 nM

input: What does the data say about its Kd? Entry: CC(=O)N[C@H](C(=O)N1CCC[C@H]1C(=O)NC1CCC=CCC[C@@H](C(=O)N[C@@H](CC(=O)O)C(=O)N[C@@H](C)C(=O)N[C@@H](CC(=O)O)C(=O)N[C@@H](CCCCNC(=S)Nc2ccc3c(c2)C(=O)OC32c3ccc(O)cc3Oc3cc(O)ccc32)C(N)=O)NC(=O)[C@H](Cc2ccccc2)NC(=O)[C@H](CCC(N)=O)NC1=O)C(C)C (stereo in doubt)
output: > 2000 nM

====

Exercise: for every item that follows, state its recorded Kd.
target: PRMT5-MEP50 (Homo sapiens); construct: The compounds were tested by means of FP with the full-length PRMT5-MEP50 complex; made in house; assay: Direct binding fluorescence polarization (FP) assay of FITC-labeled peptides; conditions: supplementary CSV, read-out: PRMT5-MEP50 Kd
Square brackets hold non-standard residues; d marks the D form. Peptide text beside a SMILES is read from it. * marks the point of attachment. FITC = O=C1OC2(c3ccc(O)cc3Oc3cc(O)ccc32)c2ccc(NC(=S)*)cc21; NMeD = CN[C@@H](CC(=O)O)C(=O)O

input: Quick one: Kd for CC(=O)N[C@@H](Cc1ccccc1)C(=O)N1CCC[C@H]1C(=O)NCC(=O)N[C@@H](CCC(N)=O)C(=O)N[C@@H](Cc1ccccc1)C(=O)N[C@@H](CC(=O)O)C(=O)N[C@@H](CC(=O)O)C(=O)N[C@@H](C)C(=O)N[C@@H](CC(=O)O)C(=O)N[C@@H](CCCCNC(=S)Nc1ccc2c(c1)C(=O)OC21c2ccc(O)cc2Oc2cc(O)ccc21)C(N)=O [Compound S3] (Ac-FPGQFDDADK(FITC)-NH2) ?
output: > 1 µM

input: Entry under review: CC(C)[C@H](NC(=O)[C@H](CCCNC(=N)N)NC(=O)[C@H](CO)NC(=O)COCCOCCNC(=S)Nc1ccc2c(c1)C(=O)OC21c2ccc(O)cc2Oc2cc(O)ccc21)C(=O)N[C@H](C(=O)N1CCC[C@H]1C(=O)NC1CCNC(=O)CC[C@@H](C(=O)N[C@@H](CC(=O)O)C(=O)N[C@@H](C)C(=O)N[C@@H](CC(=O)O)C(N)=O)NC(=O)[C@H](Cc2ccccc2)NC(=O)[C@H](CCC(N)=O)NC1=O)C(C)C (stereo in doubt) . Reported Kd?
output: > 2 µM

input: Entry CC(=O)N[C@H](C(=O)N1CCC[C@H]1C(=O)NCC(=O)N[C@@H](CCC(N)=O)C(=O)N[C@@H](Cc1ccccc1)C(=O)N[C@@H](CC(=O)O)C(=O)N(C)[C@@H](CC(=O)O)C(=O)N[C@@H](C)C(=O)N[C@@H](CC(=O)O)C(=O)N[C@@H](CCCCNC(=S)Nc1ccc2c(c1)C(=O)OC21c2ccc(O)cc2Oc2cc(O)ccc21)C(N)=O)C(C)C [Compound 46, Ac-VPGQFD-(N-Me)D-ADK(Fitc)-NH2] (Ac-VPGQFD[NMeD]ADK(FITC)-NH2) has what Kd?
output: > 2 µM

====

assay: Stability assay in cell lysate; type: in vitro ADME; conditions: U2OS cell lysate, 37 °C, 600 μM peptide; read-out: half-life (converted)
Measurement Label: half-life (days)
Please reply with the bare figure in days and do not write the unit itself.

input: # query: half-life of entry CC(=O)N[C@H](C(=O)N1CCC[C@H]1C(=O)NC1CCCCC[C@@H](C(=O)N[C@@H](CC(=O)O)C(=O)N[C@@H](C)C(=O)N[C@@H](CC(=O)O)C(N)=O)NC(=O)[C@H](Cc2ccccc2)NC(=O)[C@H](CCC(N)=O)NC1=O)C(C)C (stereo in doubt)
output: 12.5

====

target: PRMT5-MEP50 (Homo sapiens, UniProt O14744); construct: The compounds were tested by means of FP with the full-length PRMT5-MEP50 complex; made in house; test: Direct binding fluorescence polarization (FP) assay of FITC-labeled peptides; settings: supplementary CSV, read-out: PRMT5-MEP50 Kd
Sequence (O14744 whole entry): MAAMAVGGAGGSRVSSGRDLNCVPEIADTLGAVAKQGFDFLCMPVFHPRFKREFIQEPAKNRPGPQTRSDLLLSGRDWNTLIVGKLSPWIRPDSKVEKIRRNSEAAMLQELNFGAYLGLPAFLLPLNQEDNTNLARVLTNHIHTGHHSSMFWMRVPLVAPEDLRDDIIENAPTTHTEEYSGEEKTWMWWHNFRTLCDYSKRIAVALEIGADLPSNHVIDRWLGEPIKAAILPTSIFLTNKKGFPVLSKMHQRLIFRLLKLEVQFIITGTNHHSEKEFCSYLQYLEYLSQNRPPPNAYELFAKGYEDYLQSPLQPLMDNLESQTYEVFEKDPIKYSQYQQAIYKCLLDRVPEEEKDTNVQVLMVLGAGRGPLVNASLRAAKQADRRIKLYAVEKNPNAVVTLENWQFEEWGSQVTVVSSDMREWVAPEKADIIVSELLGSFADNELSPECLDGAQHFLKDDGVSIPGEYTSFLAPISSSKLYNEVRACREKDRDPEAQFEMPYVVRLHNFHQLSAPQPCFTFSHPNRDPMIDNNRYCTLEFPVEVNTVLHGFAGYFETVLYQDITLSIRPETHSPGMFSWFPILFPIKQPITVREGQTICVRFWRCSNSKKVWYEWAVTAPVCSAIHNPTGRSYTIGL
Sequence (Q9BQA1 whole entry partner): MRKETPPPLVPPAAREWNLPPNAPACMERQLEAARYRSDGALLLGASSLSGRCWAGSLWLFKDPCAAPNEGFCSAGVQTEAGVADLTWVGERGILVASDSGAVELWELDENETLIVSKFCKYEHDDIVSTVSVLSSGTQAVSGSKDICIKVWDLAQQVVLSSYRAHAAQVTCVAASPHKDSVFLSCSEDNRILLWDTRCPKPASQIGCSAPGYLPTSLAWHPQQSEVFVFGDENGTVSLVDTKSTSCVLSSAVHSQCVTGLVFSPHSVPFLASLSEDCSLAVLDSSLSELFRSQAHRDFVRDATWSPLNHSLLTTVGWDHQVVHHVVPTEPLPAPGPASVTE
Square brackets hold non-standard residues; d marks the D form. Peptide text beside a SMILES is read from it. * marks the point of attachment. FITC = O=C1OC2(c3ccc(O)cc3Oc3cc(O)ccc32)c2ccc(NC(=S)*)cc21; Phe(3-Cl) = N[C@@H](Cc1cccc(Cl)c1)C(=O)O; 2Nal = N[C@@H](Cc1ccc2ccccc2c1)C(=O)O; hPhe = N[C@@H](CCc1ccccc1)C(=O)O; NMeD = CN[C@@H](CC(=O)O)C(=O)O; Dab = NCC[C@H](N)C(=O)O; Abu = CC[C@H](N)C(=O)O
Please go through the items and note down their Kd.

input: Report Kd for CC(=O)N[C@H](C(=O)N1CCC[C@H]1C(=O)N[C@@H]1CC=CCC[C@@H](C(=O)N[C@@H](CC(=O)O)C(=O)N[C@@H](C)C(=O)N[C@@H](CC(=O)O)C(=O)N[C@@H](CCCCNC(=S)Nc2ccc3c(c2)C(=O)OC32c3ccc(O)cc3Oc3cc(O)ccc32)C(N)=O)NC(=O)[C@H](Cc2ccccc2)NC(=O)[C@H](CCC(N)=O)NC1=O)C(C)C (single isomer, unassigned) [18 (isomer 1)] please.
output: 352 nM

input: Consider the molecule CC(=O)N[C@H](C(=O)N1CCC[C@H]1C(=O)NCC(=O)N[C@@H](CCC(N)=O)C(=O)N[C@@H](Cc1ccccc1)C(=O)N[C@@H](CC(=O)O)C(=O)N[C@@H](CC(=O)O)C(=O)N[C@@H](C)C(=O)N[C@@H](CCc1ccccc1)C(=O)N[C@@H](CCCCNC(=S)Nc1ccc2c(c1)C(=O)OC21c2ccc(O)cc2Oc2cc(O)ccc21)C(N)=O)C(C)C [Compound S34] (Ac-VPGQFDDA[hPhe]K(FITC)-NH2) and give its measured Kd.
output: > 1000 nM

input: Fill in the blank: the reported Kd of CC(=O)N[C@H](C(=O)N1CCC[C@H]1C(=O)NCC(=O)N[C@@H](CCC(N)=O)C(=O)N[C@@H](Cc1ccccc1)C(=O)N[C@@H](CC(=O)O)C(=O)N[C@@H](CC(=O)O)C(=O)N[C@@H](C)C(=O)N(C)[C@@H](CC(=O)O)C(=O)N[C@@H](CCCCNC(=S)Nc1ccc2c(c1)C(=O)OC21c2ccc(O)cc2Oc2cc(O)ccc21)C(N)=O)C(C)C [Compound 44] (Ac-VPGQFDDA[NMeD]K(FITC)-NH2) is ____.
output: 587 nM

input: Which Kd is reported for this molecule? CC(=O)N[C@H](C(=O)N1CCC[C@H]1C(=O)NCC(=O)N[C@@H](CCC(N)=O)C(=O)N[C@@H](Cc1cccc(Cl)c1)C(=O)N[C@@H](CC(=O)O)C(=O)N[C@@H](CC(=O)O)C(=O)N[C@@H](C)C(=O)N[C@@H](CC(=O)O)C(=O)N[C@@H](CCCCNC(=S)Nc1ccc2c(c1)C(=O)OC21c2ccc(O)cc2Oc2cc(O)ccc21)C(N)=O)C(C)C [Compound S15] (Ac-VPGQ[Phe(3-Cl)]DDADK(FITC)-NH2)
output: > 1000 nM

input: Fill in the blank: the reported Kd of `CC(C)[C@H](NC(=O)[C@H](CCCNC(=N)N)NC(=O)[C@H](CO)NC(=O)COCCOCCNC(=S)Nc1ccc2c(c1)C(=O)OC21c2ccc(O)cc2Oc2cc(O)ccc21)C(=O)N[C@H](C(=O)N1CCC[C@H]1C(=O)N[C@@H]1CNC(=O)C[C@H](C(=O)N[C@@H](CC(=O)O)C(=O)N[C@@H](C)C(=O)N[C@@H](CC(=O)O)C(N)=O)NC(=O)[C@H](Cc2ccccc2)NC(=O)[C@H](CCC(N)=O)NC1=O)C(C)C` is ____.
output: > 2000 nM

input: Need Kd of CC[C@H](NC(=O)[C@H](CC(=O)O)NC(=O)[C@H](CC(=O)O)NC(=O)[C@H](Cc1ccccc1)NC(=O)[C@H](CCC(N)=O)NC(=O)CNC(=O)[C@@H]1CCCN1C(=O)[C@@H](NC(C)=O)C(C)C)C(=O)N[C@@H](CC(=O)O)C(=O)N[C@@H](CCCCNC(=S)Nc1ccc2c(c1)C(=O)OC21c2ccc(O)cc2Oc2cc(O)ccc21)C(N)=O [Compound S27] (Ac-VPGQFDD[Abu]DK(FITC)-NH2) , thanks.
output: > 1000 nM

input: Any idea what Kd was measured for CC(=O)N[C@H](C(=O)N1CCC[C@H]1C(=O)NCC(=O)N[C@@H](CCC(N)=O)C(=O)N[C@@H](Cc1ccccc1)C(=O)N[C@@H](CC(=O)O)C(=O)N[C@@H](CC(=O)O)C(=O)N[C@@H](C)C(=O)N[C@@H](Cc1c[nH]c2ccccc12)C(=O)N[C@@H](CCCCNC(=S)Nc1ccc2c(c1)C(=O)OC21c2ccc(O)cc2Oc2cc(O)ccc21)C(N)=O)C(C)C [Compound S33] (Ac-VPGQFDDAWK(FITC)-NH2) ?
output: > 1000 nM

input: Would you kindly share the measured Kd for CC(=O)N[C@H](C(=O)N1CCC[C@H]1C(=O)NCC(=O)N[C@@H](CCN)C(=O)N[C@@H](Cc1ccccc1)C(=O)N[C@@H](CC(=O)O)C(=O)N[C@@H](CC(=O)O)C(=O)N[C@@H](C)C(=O)N[C@@H](CC(=O)O)C(=O)N[C@@H](CCCCNC(=S)Nc1ccc2c(c1)C(=O)OC21c2ccc(O)cc2Oc2cc(O)ccc21)C(N)=O)C(C)C [Compound S9] (Ac-VPG[Dab]FDDADK(FITC)-NH2) ?
output: > 1000 nM

input: // lookup Kd for `CC(=O)N[C@H](C(=O)N1CCC[C@H]1C(=O)N[C@@H]1CCCCC[C@H](C(=O)N[C@@H](CC(=O)O)C(=O)N[C@@H](C)C(=O)N[C@@H](CC(=O)O)C(=O)N[C@@H](CCCCNC(=S)Nc2ccc3c(c2)C(=O)OC32c3ccc(O)cc3Oc3cc(O)ccc32)C(N)=O)NC(=O)[C@H](Cc2ccccc2)NC(=O)[C@H](CCC(N)=O)NC1=O)C(C)C`
output: > 2000 nM

input: # query: Kd of entry CC(=O)N[C@H](C(=O)N1CCC[C@H]1C(=O)NCC(=O)N[C@@H](CCC(N)=O)C(=O)N[C@@H](Cc1ccc2ccccc2c1)C(=O)N[C@@H](CC(=O)O)C(=O)N[C@@H](CC(=O)O)C(=O)N[C@@H](C)C(=O)N[C@@H](CC(=O)O)C(=O)N[C@@H](CCCCNC(=S)Nc1ccc2c(c1)C(=O)OC21c2ccc(O)cc2Oc2cc(O)ccc21)C(N)=O)C(C)C [Compound S24] (Ac-VPGQ[2Nal]DDADK(FITC)-NH2)
output: > 1000 nM
